Would you kindly list inhibition of aggregation for each of these compounds?
- assay.info: inhibitors of polyQ protein aggregation (AID 1604)
- stated.conditions: polyglutamine-induced protein aggregation inhibition assay; stronger effect = higher value; tested at 2.5 µM
Field format: number, assumed %, no unit text.

Task: Query: inhibition of aggregation; subject: OCCN1CCN(CCCN2c3ccccc3Sc3ccc(C(F)(F)F)cc32)CC1
Output: 51.3

Task: Quick one: inhibition of aggregation of c1ccc2[nH]c(-c3cscn3)nc2c1 ?
Output: 30.1

Task: Dear colleague, I am looking for the recorded inhibition of aggregation of the following compound: CCN(CC)CCCC(C)Nc1c2ccc(Cl)cc2nc2ccc(OC)cc12 (stereo not drawn)
Output: 77.3

Task: Please give the measured inhibition of aggregation for this compound: CN(C)CCOC(c1ccc(Cl)cc1)c1ccccn1 (stereo not drawn)
Output: 44.8

Task: Fill in: inhibition of aggregation of OC(CCN1CCCCC1)(c1ccccc1)C1CCCCC1 (stereo not drawn) is ___
Output: 88.9

Task: Query: inhibition of aggregation; subject: CN(C)CCOC(C)(c1ccccc1)c1ccccn1 (stereo not drawn)
Output: 77

Task: Dear colleague, I am looking for the recorded inhibition of aggregation of the following compound: CC1=C(CC(=O)O)c2cc(F)ccc2/C1=C\c1ccc(S(C)=O)cc1 (stereo not drawn)
Output: 78.9

Task: Recorded inhibition of aggregation for CN1C(C(=O)Nc2ccccn2)=C(O)c2ccccc2S1(=O)=O , please?
Output: 83.1
